Data origin: PubChem BioAssay AID651814

- ASSAYED_TARGET: DNA dC->dU-editing enzyme APOBEC-3F (Homo sapiens)
- ASSAY_DETAILS: qHTS for inhibitors of Vif-A3F interactions: Cherry picks;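 further: % of control where 0% means no effect; active compounds raise eYFP fluorescence by blocking Vif-driven A3F loss; nearly all actives have a fitted effect of over 70% in size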
- CONDITION_PARAMETERS: HeLa A3F-eYFP + Vif (tagged APOBEC3F with the HIV-1 protein that degrades it), eYFP fluorescence, 24 h
About 590 (28%) of roughly 2,100 compounds were called active. Not shown: some 42% with an inconclusive outcome. Some of the results follow.
Exercise: for every item that follows, state its recorded max response.
Answers are plain numbers, in %.

1. Cc1ccc(NC(=O)CSc2ccccc2NC(=O)c2cccc(Cl)c2)cc1Cl :: -5.67
2. N#CC1=C(N)Oc2c(sc3ccccc23)C1c1ccco1 (stereo unspecified) :: -18.3
3. CN(C)S(=O)(=O)c1ccc(N2CCCC2)c(C(=O)N2CCN(S(=O)(=O)c3ccc(F)c(F)c3)CC2)c1 :: 3.41

For the 6 molecules below, give their max response values.
1. CC(=O)c1cccc(NC(=O)C2CCCN(S(=O)(=O)c3cccc4nonc34)C2)c1 (stereo unspecified)
2. COc1ccc(/C=N/n2cc(-c3ccccc3)nc2N)cc1
3. CSc1nsc(/C=C/Nc2ccc(F)cc2)c1C#N
4. CCN(CC)c1nc2cc(OC)ccc2cc1C#N
5. N#C/C(=C\c1ccc(-c2ccc(C(=O)O)cc2)o1)c1nc2ccccc2[nH]1
6. CC1(C(=O)Nc2ccc3c(c2)OCO3)Cc2c(-c3ccccc3)ccnc2O1 (stereo unspecified)

[-0.245, -18.9, -9.4, -15.5, 0.542, -25.3]

For the 2 molecules below, give their max response values.
1. CCn1c(CNC(=O)C23CC4CC(CC(C4)C2)C3)nnc1SCC(=O)Nc1ccc(OC)cc1
2. CCC(=O)NC(=S)Nc1cccc(Cl)c1N1CCCC1

1: 6.03; 2: -0.93
